Experimental target: T1, human TNFR2 on the cell surface (CHO-TNFR2 cells; human Treg cells) (human, UniProt P20333 23-461)
T1 construct: whole, on cells; The assay field of each row says which cells; also called TNFR2-CHO cell; TNFR2 on Treg cells
T1 sequence (looked up): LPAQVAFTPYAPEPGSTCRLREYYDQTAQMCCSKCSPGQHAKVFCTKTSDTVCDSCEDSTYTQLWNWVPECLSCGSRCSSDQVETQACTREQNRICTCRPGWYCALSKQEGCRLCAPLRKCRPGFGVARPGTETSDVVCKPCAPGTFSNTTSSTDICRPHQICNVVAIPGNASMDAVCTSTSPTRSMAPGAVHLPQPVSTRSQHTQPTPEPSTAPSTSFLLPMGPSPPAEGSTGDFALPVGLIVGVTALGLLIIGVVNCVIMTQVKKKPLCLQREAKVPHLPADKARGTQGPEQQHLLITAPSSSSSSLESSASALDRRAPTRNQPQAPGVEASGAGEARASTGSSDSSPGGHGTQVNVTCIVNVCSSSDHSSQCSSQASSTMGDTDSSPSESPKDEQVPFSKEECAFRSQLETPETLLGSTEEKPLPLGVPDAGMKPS
Protocol details: flow cytometry, blocking of TNFα-biotin on CHO-TNFR2 cells; against 002#
Exercise: state measured IC50 Relative Value % for each of the binders provided.

{"Binder": "TNFR2 antibody #088 (antibody, V domains shown) VH: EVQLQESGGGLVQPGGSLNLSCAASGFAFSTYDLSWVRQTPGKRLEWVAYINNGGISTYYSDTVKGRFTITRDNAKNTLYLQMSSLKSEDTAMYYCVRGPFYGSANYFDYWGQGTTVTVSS VL: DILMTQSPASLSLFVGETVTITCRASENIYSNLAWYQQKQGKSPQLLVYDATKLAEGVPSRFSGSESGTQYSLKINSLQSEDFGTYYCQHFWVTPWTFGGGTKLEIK", "Obs value": "41.5%"}
{"Binder": "TNFR2 antibody #219 (antibody, V domains shown) VH: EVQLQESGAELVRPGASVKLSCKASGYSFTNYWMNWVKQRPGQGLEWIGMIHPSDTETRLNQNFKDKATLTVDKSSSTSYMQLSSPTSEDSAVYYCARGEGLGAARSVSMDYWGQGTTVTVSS VL: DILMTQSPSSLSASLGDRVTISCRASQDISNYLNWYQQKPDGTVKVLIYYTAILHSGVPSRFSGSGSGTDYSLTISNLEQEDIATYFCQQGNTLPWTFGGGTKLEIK", "Obs value": "71.4%"}
{"Binder": "TNFR2 antibody #224 (antibody, V domains shown) VH: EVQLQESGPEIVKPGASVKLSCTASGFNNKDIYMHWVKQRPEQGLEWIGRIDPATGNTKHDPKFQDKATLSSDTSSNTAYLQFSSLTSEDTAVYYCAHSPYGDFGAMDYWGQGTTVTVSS VL: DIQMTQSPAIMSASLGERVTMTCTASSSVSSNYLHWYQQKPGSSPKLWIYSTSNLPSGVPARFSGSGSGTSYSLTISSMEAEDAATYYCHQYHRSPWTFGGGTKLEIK", "Obs value": "132%"}

// for each binder below, give its IC50 Relative Value %
1. TNFR2 antibody #309 (antibody, V domains shown) VH: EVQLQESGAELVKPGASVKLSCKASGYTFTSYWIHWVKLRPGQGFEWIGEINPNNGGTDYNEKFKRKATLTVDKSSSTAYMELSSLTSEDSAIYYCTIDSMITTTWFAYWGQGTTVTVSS VL: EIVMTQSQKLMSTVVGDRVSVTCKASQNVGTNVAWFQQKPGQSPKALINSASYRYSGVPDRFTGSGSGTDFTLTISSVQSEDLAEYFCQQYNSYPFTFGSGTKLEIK
2. TNFR2 antibody #133 (antibody, V domains shown) VH: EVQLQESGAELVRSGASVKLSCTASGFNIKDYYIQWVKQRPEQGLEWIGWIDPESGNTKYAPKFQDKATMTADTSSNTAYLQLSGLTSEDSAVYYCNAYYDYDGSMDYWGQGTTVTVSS VL: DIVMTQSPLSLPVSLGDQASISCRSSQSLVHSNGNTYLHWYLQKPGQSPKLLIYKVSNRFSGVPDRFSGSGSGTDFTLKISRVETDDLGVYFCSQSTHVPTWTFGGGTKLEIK

["70.7%", "150%"]

Cited source: patent US20220017630A1
